As shown below, each of these compounds has a reported pKd value.
# TARGET_DESC: AKT1 PH-domain (Homo sapiens)
# Construct: The PH-domain His-fusion proteins (CNK1 and AKT1) were expressed and immobilized on a NTA chip; made in house
# Sequence (P31749 5-108 limits assumed): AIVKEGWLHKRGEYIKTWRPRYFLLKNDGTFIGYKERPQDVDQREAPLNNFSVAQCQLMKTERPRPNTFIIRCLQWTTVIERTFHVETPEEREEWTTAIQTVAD
# ASSAY_EXPLANATION: SPR binding assay (Biacore T100), AKT1 PH-domain
# TEST_SETTINGS: Table 8; read-out: AKT KD
Scale explanation: pKd corresponds to minus log10 of a concentration expressed in moles per litre.

For orientation, consider the following solved cases.
SMILES_REPRESENTATION: CCOC(=O)/C=C/c1c(O)c(OC)cc(NS(=O)(=O)c2cccs2)c1SC
EXPERIMENTAL_ENDPOINT: pKd
RESULT: 3.48
--
SMILES_REPRESENTATION: CSc1c(NS(=O)(=O)c2cccs2)cc(O)c(O)c1/C=C/C(=O)O
EXPERIMENTAL_ENDPOINT: pKd
RESULT: 4.87

Problem: Dear colleague, please send me the reported pKd for `COc1cc(NS(=O)(=O)c2cccs2)c(SC)c(/C=C/C(=O)O)c1O` when you can.
Result: 5.32

* * *

# System: H226 (KRAS wildtype cell line)
# ASSAY_EXPLANATION: Proliferation Assay H226
# Format: cell-based
# TEST_SETTINGS: Homo sapiens, NCI-H226, n = 1
EXPERIMENTAL_ENDPOINT: IC50

For orientation, consider the following solved cases.
COMPOUND: Cc1ccc(-c2csc(Cn3nc(NS(=O)(=O)c4cccs4)c4ccccc4c3=O)n2)cc1 [Compound 5]
IC50: > 100 µM
//
COMPOUND: Cc1ccc(-c2csc(Cn3nc(CC(=O)NCCC(N)=O)c4ccccc4c3=O)n2)cc1 [Compound 81]
IC50: > 100 µM
//
COMPOUND: Cc1ccc(-c2csc(Cn3nc(CC(=O)NCC(N)=O)c4ccccc4c3=O)n2)cc1 [Compound 82]
IC50: > 100 µM
//
COMPOUND: CCOC(=O)/C=C/c1cc(NS(=O)(=O)c2cccs2)c2c(c1OC)OCO2 [Compound 86]
IC50: > 100 µM
//
COMPOUND: Cc1ccc(-c2csc(Cn3nc(CC4OCCCO4)c4ccccc4c3=O)n2)cc1 [Compound 9]
IC50: > 100 µM
//
COMPOUND: Cc1ccc(-c2csc(Cn3nc(CC(=O)NS(C)(=O)=O)c4ccccc4c3=O)n2)cc1 [Compound 127]
IC50: > 100 µM

Problem: Dear colleague, please send me the reported IC50 for CN1CC(=O)N(/C=C/c2cc(N(S(=O)(=O)c3cccs3)S(=O)(=O)c3cccs3)c3c(c2O)OCO3)C1=O [Compound 128] when you can.
Result: > 100 µM

Problem: Dear colleague, please send me the reported IC50 for CCOC(=O)/C=C/c1cc(NS(=O)(=O)c2cccs2)c2c(c1O)OCO2 [Compound 88] when you can.
Result: > 100 µM

Problem: Dear colleague, please send me the reported IC50 for CSc1c(N)cc(O)c(O)c1/C=C/C(=O)O [Compound 110] when you can.
Result: 65 µM

Problem: Dear colleague, please send me the reported IC50 for CCOC(=O)/C=C/c1c(O)c(OC)cc(NS(=O)(=O)c2cccs2)c1SC [Compound 103] when you can.
Result: > 100 µM

Problem: Dear colleague, please send me the reported IC50 for CCOC(=O)/C=C/c1c(O)c(O)cc(N)c1SC [Compound 109] when you can.
Result: > 100 µM

Problem: Dear colleague, please send me the reported IC50 for COc1c(/C=C/C(=O)O)cc(NS(=O)(=O)c2cccs2)c2c1OCO2 [Compound 84] when you can.
Result: > 100 µM

Problem: Dear colleague, please send me the reported IC50 for Cc1ccc(-c2csc(Cn3nc(C4OC5CCOC54)c4ccccc4c3=O)n2)cc1 (centres unmarked) [Compound 124] when you can.
Result: 95 µM

* * *

# TARGET_DESC: CNK1 PH-domain (CNKSR1) (Homo sapiens, UniProt Q969H4)
# Construct: The PH-domain His-fusion proteins (CNK1 and AKT1) were expressed and immobilized on a NTA chip; made in house
# Sequence (Q969H4 403-502 limits assumed): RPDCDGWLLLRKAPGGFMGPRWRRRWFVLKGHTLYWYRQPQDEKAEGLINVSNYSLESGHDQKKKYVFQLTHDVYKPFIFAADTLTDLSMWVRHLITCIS
# ASSAY_EXPLANATION: SPR binding assay (Biacore T100), CNK1 PH-domain
# TEST_SETTINGS: date 12 09 13
# thresholds on Surface Plasmon Resonance CNKSR1 stability (RU max post-injection) define classes: Low = under -0.07 RU * 100/Da, Medium = from -0.07 RU * 100/Da up to 0.5 RU * 100/Da, High = 0.5 RU * 100/Da and over

Worked set:
MOLECULE: CCOC(=O)/C=C/c1c(O)c(O)cc(N)c1SC
LABEL_CLASS: Medium
//
MOLECULE: CSc1c(N)cc(O)c(O)c1/C=C/C(=O)O
LABEL_CLASS: Medium
//
MOLECULE: Cc1ccc(-c2csc(Cn3nc(CC(=O)NS(C)(=O)=O)c4ccccc4c3=O)n2)cc1
LABEL_CLASS: High
//
MOLECULE: CCOC(=O)/C=C/c1c(O)c(OC)cc(NS(=O)(=O)c2cccs2)c1SC
LABEL_CLASS: High
//
MOLECULE: Cc1ccc(-c2csc(Cn3nc(CC(O)C[N+](=O)[O-])c4ccccc4c3=O)n2)cc1 (stereo not shown)
LABEL_CLASS: Low
//
MOLECULE: COc1cc(N)c(SC)c(/C=C/C(=O)O)c1O
LABEL_CLASS: Medium
//
MOLECULE: CCOC(=O)/C=C/c1c(O)c(O)cc(NS(=O)(=O)c2cccs2)c1SC
LABEL_CLASS: Low
//
MOLECULE: Cc1ccc(-c2csc(Cn3nc(CC(=O)NCC(N)=O)c4ccccc4c3=O)n2)cc1
LABEL_CLASS: High

Then this molecule:
Problem: Into which bin does this molecule go? `CCOC(=O)/C=C/c1cc(NS(=O)(=O)c2cccs2)c2c(c1OC)OCO2`
Result: Low

* * *

# Tested on: H226 (KRAS wildtype cell line)
# ASSAY_EXPLANATION: Proliferation Assay H226
# Format: cell-based
# TEST_SETTINGS: Homo sapiens, NCI-H226, n = 1
pIC50: −log10 of the molar value.
EXPERIMENTAL_ENDPOINT: pIC50

For orientation, consider the following solved cases.
MOLECULE: O=C(O)CCc1cc(NS(=O)(=O)c2cccs2)c2c(c1O)OCO2 [Compound 90]
RESULT: < 4.00
--
MOLECULE: O=C1COC(=O)N1/C=C/c1cc(NS(=O)(=O)c2cccs2)c2c(c1O)OCO2 [Compound 100]
RESULT: < 4.00
--
MOLECULE: COc1cc(N)c(SC)c(/C=C/C(=O)O)c1O [Compound 108]
RESULT: 4.26

Problem: Find pIC50 for O=C(O)/C=C/c1cc(NS(=O)(=O)c2cccs2)c2c(c1O)OCO2 [Compound 89] on H226 (KRAS wildtype cell line) and write it down.
Result: < 4.00

* * *

# TARGET_DESC: CNK1 PH-domain (CNKSR1) (Homo sapiens, UniProt Q969H4)
# Construct: The PH-domain His-fusion proteins (CNK1 and AKT1) were expressed and immobilized on a NTA chip; made in house
# ASSAY_EXPLANATION: SPR binding assay (Biacore T100), CNK1 PH-domain
# TEST_SETTINGS: date 12 09 13
EXPERIMENTAL_ENDPOINT: Surface Plasmon Resonance CNKSR1 stability (RU max post-injection) (RU * 100/Da)
Express it in RU * 100/Da; write the number only.

For orientation, consider the following solved cases.
COMPOUND: CCNC(=O)Cc1nn(Cc2nc(-c3ccc(C)cc3)cs2)c(=O)c2ccccc12 [Compound 78]
UNIT_DESCRIPTOR: RU * 100/Da
RESULT: −0.065
--
COMPOUND: CCOC(=O)Cc1nn(Cc2nc(-c3ccc(C)cc3)cs2)c(=O)c2ccccc12 [Compound 7]
UNIT_DESCRIPTOR: RU * 100/Da
RESULT: 0.798
--
COMPOUND: CCOC(=O)CCc1cc(NS(=O)(=O)c2cccs2)c2c(c1OC)OCO2 [Compound 85]
UNIT_DESCRIPTOR: RU * 100/Da
RESULT: 1.515

Turning now to a further compound:
Problem: Dear colleague, please send me the reported Surface Plasmon Resonance CNKSR1 stability (RU max post-injection) for CN1CC(=O)N(/C=C/c2cc(N(S(=O)(=O)c3cccs3)S(=O)(=O)c3cccs3)c3c(c2O)OCO3)C1=O [Compound 128] when you can.
Result: −0.304
